System: EKVX NSCLC
ASSAY_NAME: NCI tumour cell line growth inhibition, 48 h
MEASUREMENT_NAME: GI50

Record excerpt, results attached:
[[record]]
compound = "NC(=O)c1c(Br)n(C2OC(CO)C(O)C2O)c2ncnc(N)c12 (stereo not given)"
result = "4.31 µM"

[[record]]
compound = "COc1ccc(C(=O)c2cc(OC)c(OC)c(OC)c2)cc1OC(=O)C(Cl)(Cl)Cl"
result = "3.16 µM"

[[record]]
compound = "Nc1ccccc1NC(=O)c1ccc(CNC(=O)OCc2cccnc2)cc1"
result = "3.26 µM"

[[record]]
compound = "COc1ccc(OC)c(/C=C/C(=O)N/N=C/c2ccccc2)c1"
result = "1.59 µM"

[[record]]
compound = "COc1cc(-c2nn(-c3ccc(NC(=O)NCCNS(=O)(=O)c4ccc(F)cc4)cc3)cc2-c2ccncc2)ccc1Cl"
result = "1.32 µM"


In one line, give reported GI50 of the entry N#Cc1cnc(=O)n(C2CC(O)C(CO)O2)c1 (stereo not given) .
> 100 µM

In one line, give reported GI50 of the entry O=C1OCC(C#Cc2ccccc2)=C1Br .
17.2 µM

In one line, give reported GI50 of the entry Cc1ccc(C2C3Cc4ccccc4C3=NN2c2ccc(S(=O)(=O)NC(=O)NC3CCCCC3)cc2)cc1 (stereo not given) .
20.2 µM

In one line, give reported GI50 of the entry COc1ccc(C2=C(c3cn(C)c4ccccc34)C(=O)OC2)cc1OC .
4.64 µM

In one line, give reported GI50 of the entry Cc1ccc(-c2nc3nc(-c4ccc(Br)cc4)nc(N4CCCNCC4)c3o2)cc1 .
13.8 µM

====

Test system: COLO 205 colon
ASSAY_NAME: NCI tumour cell line growth inhibition, 48 h
MEASUREMENT_NAME: GI50

[[record]]
substance_smiles = "COc1ccc(/C=C/C(=O)c2ccc(Cl)cc2Cl)cc1"
result = "32 µM"

[[record]]
substance_smiles = "CC(C)(C)C(=O)OCCNc1nc(-c2ccccc2)nc2ccccc12"
result = "16.2 µM"


In one line, give reported GI50 of the entry COc1ccc(C2=C(c3cn(C)c4ccccc34)C(=O)OC2)cc1OC .
1.5 µM

====

System: OVCAR-4 ovarian
ASSAY_NAME: NCI tumour cell line growth inhibition, 48 h; in the data active = GI50 below about 0.43 µM; inactive = the rest
Respond using exactly one of the listed classes: yes for active, no for inactive

[[record]]
substance_smiles = "ClC(Cl)c1nc(-c2ccccc2)n2nc(-c3ccccc3)cc2n1"
answer_label = "no"

[[record]]
substance_smiles = "CCn1nc(-c2ccc(C(=O)OC)cc2)nc2c(=O)n(C)c(=O)nc1-2"
answer_label = "no"

[[record]]
substance_smiles = "COC(=O)[C@@]1(C)CCC[C@]2(C)[C@H]3Cc4occc4[C@H](C)[C@@H]3CC[C@@]12O"
answer_label = "no"

[[record]]
substance_smiles = "COc1cccc(/C=C2\\COc3ccc(O)c(O)c3C2=O)c1"
answer_label = "no"


// return assay outcome for NCCNC1=CC(=O)c2nc3ccccc3c3ccnc1c23
no

// return assay outcome for C#C[C@@]1(O)[C@@H](CO)O[C@@H](n2cc(Br)c3c(N)ncnc32)[C@@H]1O
yes

// return assay outcome for COc1ccc2c(c1)c1c(C)c3cnccc3c(C)c1n2CCCN
yes

// return assay outcome for Nc1ccccc1NC(=O)c1ccc(CNC(=O)OCc2cccnc2)cc1
no

// return assay outcome for O=C(/C=C\Sc1ccccn1)c1cccc(Br)c1
no

// return assay outcome for O=C(Nc1ccc(F)cc1F)c1cc(F)ccc1O
no

// return assay outcome for COc1cc2c(cc1O)CC[C@@H]1[C@@H]2CC[C@]2(C)[C@@H](OCCCN(C)C)CC[C@@H]12
yes

====

System: SR leukemia
ASSAY_NAME: NCI tumour cell line growth inhibition, 48 h; in the data active means GI50 below about 0.43 µM; inactive means the rest
Respond using exactly one of the listed classes: active, inactive

Example entries and their recorded answers appear below.
[[record]]
compound = "COc1ccc(/C=C/C(=O)c2ccc(Cl)cc2Cl)cc1"
answer_label = "inactive"

[[record]]
compound = "S=c1ssnc1-c1ccccn1"
answer_label = "inactive"

[[record]]
compound = "COC(=O)C1=C(C(=O)OC)SC(=C(Cl)C(=S)Oc2ccccc2N)S1"
answer_label = "inactive"


// return assay outcome for Nc1cc(N)c2nc(-c3ccccc3)c(NCCc3ccc(Cl)c(Cl)c3)nc2c1
inactive

// return assay outcome for C=CC(C)c1cccc(C=O)c1O (stereo not drawn)
inactive

// return assay outcome for CC(C)C[C@@H](NC(=O)[C@@H](Cc1ccccc1)NC(=O)c1cnccn1)B1Oc2ccc(C[C@H](NC(=O)[C@H](Cc3ccc4c(c3)OB([C@@H](CC(C)C)NC(=O)[C@@H](Cc3ccccc3)NC(=O)c3cnccn3)O4)NC(=O)[C@@H](N)CC3CCC4OB([C@@H](CC(C)C)NC(=O)[C@@H](CC5CCCCC5)NC(=O)C5CNCCN5)OC4C3)C(=O)NCCCC[C@@H]3NC(=O)[C@@H](Cc4ccccc4)NC(=O)[C@H](CC(=O)O)NC(=O)CNC(=O)[C@H](CCCNC(=N)N)NC3=O)cc2O1 (stereo partly drawn)
active

// return assay outcome for Cc1ccc(-c2nc3nc(-c4ccc(Br)cc4)nc(N4CCCNCC4)c3o2)cc1
inactive

// return assay outcome for CCCC(=O)OCC1OC(n2cnc3c(=S)nc(N)[nH]c32)C(OC(=O)CCC)C1OC(=O)CCC (stereo not drawn)
inactive

====

log10(TGI) listing for selected compounds.
Test system: NCI-H522 lung
ASSAY_NAME: NCI tumour cell line growth inhibition, 48 h
Log scale reminder: TGI in µM, then log10 taken.

In one line, give reported log10(TGI) of the entry CCOC(=O)C1=C(C)NC(C)=C(C(=O)OCC)C1c1ccc(Cl)cc1 .
1.51

In one line, give reported log10(TGI) of the entry O=C1C(Br)=C(C2=CC(=P(c3ccccc3)(c3ccccc3)c3ccccc3)C=C2)C(=O)C(Br)=C1C1=CC(=P(c2ccccc2)(c2ccccc2)c2ccccc2)C=C1 .
1.63

In one line, give reported log10(TGI) of the entry O=C1NC(N/N=C/c2cccs2)=N/C1=C\c1ccco1 .
1.60

In one line, give reported log10(TGI) of the entry COC(=O)[C@]1(c2cc3ccccc3[nH]2)CC2CN(C(=O)OCc3ccccc3)C1C=C2OC (some centres not stated) .
1.96

In one line, give reported log10(TGI) of the entry C[C@@H](CO)C1=C(O)c2ccc3c(c2C(=O)C1=O)CCCC3(C)C .
1.80

In one line, give reported log10(TGI) of the entry COc1cc([C@@H]2c3cc4c(c(O[C@@H]5O[C@H]6CO[C@@H](C)O[C@H]6[C@H](O)[C@@H]5O)c3C[C@H]3COC(=O)[C@@H]32)OCO4)cc(OC)c1O .
0.81

In one line, give reported log10(TGI) of the entry CC(=O)OC(C)(C)C1O[C@@]23OC1C[C@@H](C)[C@@H]2[C@@]1(C)CC[C@@]24C[C@@]25CC[C@H](OC2OCC(O)C(O)C2O)C(C)(C)[C@@H]5CCC4[C@]1(C)[C@H]3O (some centres not stated) .
1.40

In one line, give reported log10(TGI) of the entry CC(C)N(Cc1c(F)cccc1F)c1ccc(CO)c(Cl)c1 .
1.55

====

System: RXF 393 renal
ASSAY_NAME: NCI tumour cell line growth inhibition, 48 h; in the data active = GI50 below about 0.43 µM; inactive = the rest
Respond using exactly one of the listed classes: label 1 = active, label 0 = inactive

Example entries and their recorded answers appear below.
[[record]]
compound = "Cc1ccc2cc3c(cc(C)c4ccccc43)c3c2c1CC3"
answer_label = "label 0"

[[record]]
compound = "COc1ccc(/C=C/C(=O)c2ccc(Cl)cc2Cl)cc1"
answer_label = "label 0"

[[record]]
compound = "Cc1ccc(C2C3Cc4ccccc4C3=NN2c2ccc(S(=O)(=O)NC(=O)NC3CCCCC3)cc2)cc1 (configuration not stated)"
answer_label = "label 0"

[[record]]
compound = "COc1cccc(/C=C2\\COc3ccc(O)c(O)c3C2=O)c1"
answer_label = "label 0"

[[record]]
compound = "Nc1nc(/C=C\\c2ccc([N+](=O)[O-])s2)nc(N2CCOCC2)n1"
answer_label = "label 0"

[[record]]
compound = "COc1cc2c(cc1O)CC[C@@H]1[C@@H]2CC[C@]2(C)[C@@H](OCCCN(C)C)CC[C@@H]12"
answer_label = "label 1"


Read the next record carefully.
// return assay outcome for O=C1CCC/C=C\C[C@H]2C=CC(=O)/C2=C/C[C@H](CCc2cccc(C(F)(F)F)c2)O1
label 0

====

GI50 listing for selected compounds.
System: 786-0 renal
ASSAY_NAME: NCI tumour cell line growth inhibition, 48 h

[[record]]
compound = "COc1ccc(-c2nc3c(-c4ccccc4)nc(-c4ccccc4)cn3c2-c2ccc(OC)cc2)cc1"
measurement_name = "GI50"
result = "49.5 µM"

[[record]]
compound = "CCOC(=O)CCC(NC(=O)c1ccc(Sc2nc3cc(N)cc(N)c3nc2-c2ccccc2)cc1)C(=O)OCC (stereo not given)"
measurement_name = "GI50"
result = "4.72 µM"

[[record]]
compound = "COc1cc(-c2nn(-c3ccc(NC(=O)NCCNS(=O)(=O)c4ccc(F)cc4)cc3)cc2-c2ccncc2)ccc1Cl"
measurement_name = "GI50"
result = "0.901 µM"

[[record]]
compound = "COc1ccc(/C=C/C(=O)c2ccc(Cl)cc2Cl)cc1"
measurement_name = "GI50"
result = "13.9 µM"

[[record]]
compound = "COC(=O)C1=C(C(=O)OC)SC(=C(Cl)C(=S)Oc2ccccc2N)S1"
measurement_name = "GI50"
result = "12.3 µM"


In one line, give reported GI50 of the entry COc1ccc(C(=O)c2cc(OC)c(OC)c(OC)c2)cc1OC(=O)C(Cl)(Cl)Cl .
0.587 µM

In one line, give reported GI50 of the entry CN1C[C@@H](c2ccc(Cl)cc2)[C@]2(NC(=S)N(c3ccc(F)c(Cl)c3)C2=O)[C@@]12C(=O)NC1C=CC(Cl)=C[C@H]12 (stereo not given in full) .
2.08 µM

In one line, give reported GI50 of the entry NC(=O)c1c(Br)n(C2OC(CO)C(O)C2O)c2ncnc(N)c12 (stereo not given) .
3.04 µM

In one line, give reported GI50 of the entry Cc1ccc(-c2nc3nc(-c4ccc(Br)cc4)nc(N4CCCNCC4)c3o2)cc1 .
3.95 µM

In one line, give reported GI50 of the entry NCCNC1=CC(=O)c2nc3ccccc3c3ccnc1c23 .
2.45 µM
